TEST DESCRIPTION: CCTE_Shafer_MEA_dev_spike_duration_mean: CCTE's Neural Network Formation Assay for Mean Spike Duration, Shafer Lab (AID 2284051);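 note: mean network spike duration pooled as area under curve over DIV 5 to 12 recordings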
The source made the active and inactive calls. Rule for the calls: active = hit-call score of the fitted dose curve at least 0.9, where 1 is the maximum; inactive = score below 0.9.
Respond with a class label; see yes (active), no (inactive)

Check out these entries, answers already filled in.
O=C(CCCN1CCC(O)(c2ccc(Cl)cc2)CC1)c1ccc(F)cc1 : yes
CN(CCO)S(=O)(=O)C(F)(F)C(F)(F)C(F)(F)C(F)(F)C(F)(F)C(F)(F)C(F)(F)C(F)(F)F : no

**Query** Given `COC(=O)C(F)(F)C(F)(F)C(F)(F)F` , state the outcome it received in this test.
**Result** no

**Query** Tell me the recorded outcome of this test for `NC(C(F)(F)F)C(F)(F)F` .
**Result** no

**Query** Please share the test call associated with `O=CC(F)(F)C(F)(F)C(F)(F)F` .
**Result** no

**Query** GET /call?item= `CC(C)c1c(C(=O)Nc2ccccc2)c(-c2ccccc2)c(-c2ccc(F)cc2)n1CC[C@@H](O)C[C@@H](O)CC(=O)O` returns the recorded outcome of this test.
**Result** yes

**Query** Write down the call the test reported for this compound. Item: `COC(=O)C(F)(F)C(F)(F)C(F)(F)C(F)(F)C(F)(F)F`
**Result** no

**Query** Please let me know the test result on file for `CN(C)CCOC(c1ccccc1)c1ccccc1` .
**Result** yes

**Query** State the result this test recorded for `O=C(CC(=O)C(F)(F)C(F)(F)C(F)(F)F)c1cccs1` .
**Result** yes

**Query** Could you kindly confirm the outcome this assay logged for `O=C1NS(=O)(=O)c2ccccc21` ?
**Result** no

**Query** Called result for `C=CC(F)(F)C(F)(F)C(F)(F)C(F)(F)F`
**Result** no

Ref: PubChem BioAssay (EPA / NIEHS)
